Data origin, for the record: paper PMC3005096

system: HaCaT keratinocytes; test: Proliferation of HaCaT keratinocytes; type: cell-based, human; settings: read-out: EC50, inhibition of proliferation
Parameter measured: EC50

>>> df
                                   compound          system_name  parameter_measured  result
0  C=C1CC[C@H](O)C/C1=C/C=C1\CCC[C@]2(C)[C@@H](C(=O)CO)CC[C@@H]12 [21(OH)pD]  HaCaT keratinocytes                EC50   40 nM
